TESTED_ON: TLR5 of the cell-based reporter assays
TEST_PROTOCOL: cell-based or functional assay
Known Signaling EC50 Normalized by CBLB502 of a selection of binders
// note: answer is a bare numeric in fold vs CBLB502

Solved cases (4 shown):
[[record]]
binder = "CBLB502 mutant MIXC (ligand) MSGLRINSAKDDAAGQAIANRFTSNIKGLTQASRNANDGISIAQTTEGALNEINNNLQRVRELSVQATNGTNSDSDLKSIQDEIQQRLEEIDRVSNQTQFNGVKVLSQDNQMKIQVGANDGETITIDLQKIDVKSLGLDGFNVNSPGSTANPLASIDSALSKVDAVRSSLGAIQARFAAAIANLGNTVTNLNSARSRIEDADYATEVSNMSKAQILQQAGTSVLAQANQVPQNVLSLLVPRGSHHHHHHG"
unit_abbreviation = "fold vs CBLB502"
value = 1.5

[[record]]
binder = "CBLB502 mutant MIM1 (ligand) MRGSHHHHHHGMASMTGGQQMGRDLYDDDDKDPMAQVINTNSLSLLTQNNLNKSQSSLSSAIERLSSGLRINSAKDDAAGQAIANRFTSNIKGLTQASRNANDGISIAQTTEGALNEINNNLQRVRELSVQATNGTNSDSDLKSIQDEIQQRLEEIDRVSNQTQFNGVKVLSQDNQMKIQVGANDGETITIDLQKIDVKSLGLDGFNVNSPGISGGGGGILDSMGTLINEDAAAAKKSTANPLASIDSALSKVDAVRSSLGAIQNRFDSAITNLGNTVTALASARSRIEDADYATEVSNMSKAQILQQAGTSVLAQANQVPQNVLSLLR"
unit_abbreviation = "fold vs CBLB502"
value = 0.9

[[record]]
binder = "CBLB502 mutant 33MIMX (ligand) MRGSHHHHHHGMASMTGGQQMGRDLYDLVPRGSAKDPSGLRINSAKDDAAGQAIANRFTSNIKGLTQASRNAADGISIAQTTEGALNEINNNLQRVRELSVQATNGTNSDSDLKSIQDEIQQRLEEIDRVSNQTQANGVKVLSQDNAMKIQVGANDGAAITIDLQKIDVKSLGLDGFNVNSPGISGGGGGILDSMGTLINEDAAAAKKSTANPLASIDSALSKVDAVRSSLGAIQARFAAAIANLGNTVTNLNSARSRIEDADYATEVSNMSKAQILQQAGTSVLAQANQVPQNVLSLLR"
unit_abbreviation = "fold vs CBLB502"
value = 1.3

[[record]]
binder = "CBLB502 mutant MIM4 (ligand) MRGSHHHHHHGMASMTGGQQMGRDLYDDDDKDPMAQVINTNSLSLLTQNNLNKSQSSLSSAIERLSSGLRINSAKDDAAGQAIANRFTSNIKGLTQASRNANDGISIAQTTEGALNEINNNLQRVRELSVQATNGTNSDSDLKSIQDEIQQRLEEIDRVSNQTQFNGVKVLSQDNQMKIQVGANDGETITIDLQKIDVKSLGLDGFNVNSPGISGGGGGILDSMGTLINEDAAAAKKSTANPLASIDSALSKVDAVRSSLGAIDSAITALGATVTALASAASRIEDADYATEVSNMSKAQILQQAGTSVLAQANQVPQNVLSLLR"
unit_abbreviation = "fold vs CBLB502"
value = 37


Kindly consider the entry below.
**Query** For the binder shown here, CBLB502 mutant MIM3 (ligand) MRGSHHHHHHGMASMTGGQQMGRDLYDDDDKDPMAQVINTNSLSLLTQNNLNKSQSSLSSAIERLSSGLRINSAKDDAAGQAIANRFTSNIKGLTQASRNANDGISIAQTTEGALNEINNNLQRVRELSVQATNGTNSDSDLKSIQDEIQQRLEEIDRVSNQTQFNGVKVLSQDNQMKIQVGANDGETITIDLQKIDVKSLGLDGFNVNSPGISGGGGGILDSMGTLINEDAAAAKKSTANPLASIDSALSKVDAVRSSLGAIQNRFDSAITALGATVTALASAASRIEDADYATEVSNMSKAQILQQAGTSVLAQANQVPQNVLSLLR , give the reported Signaling EC50 Normalized by CBLB502.
**Result** 4.6
